# Target of assay: T1, recombinant human IL-6 (human, UniProt P05231 30-212)
# T1 construct: Flowed in solution over the captured antibodies
# T1 sequence (P05231 30-212 limits assumed): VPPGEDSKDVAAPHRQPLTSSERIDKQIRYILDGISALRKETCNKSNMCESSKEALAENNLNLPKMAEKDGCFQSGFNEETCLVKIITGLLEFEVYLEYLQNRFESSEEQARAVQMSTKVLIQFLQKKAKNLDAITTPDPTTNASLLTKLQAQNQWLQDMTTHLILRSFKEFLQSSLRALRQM
# Assay text: SPR (Biacore), supernatant IgG on Protein A, 25 C
kon listing for selected binders.

{"Binder": "anti-IL-6 antibody, heavy chain S30W, light chain WT (antibody, IgG1, V domains shown, Full IgG1 tested; V domains derived as in m2) VH: EVQLVESGGGLVQPGGSLRLSCAASGFTFWPFAMSWVRQAPGKGLEWVAKISPGGSWTYYSDTVTGRFTFSLDTSKSTAYLQMNSLRAEDTAVYYCARQLWGYYALDIWGQGTLVTVSS VL: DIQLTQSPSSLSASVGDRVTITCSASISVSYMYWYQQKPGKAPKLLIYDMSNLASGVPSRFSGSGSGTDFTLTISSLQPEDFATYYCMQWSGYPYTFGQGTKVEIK", "kon / M⁻¹ s⁻¹": 417000}
{"Binder": "anti-IL-6 antibody, heavy chain WT, light chain I27L (antibody, IgG1, V domains shown, Full IgG1 tested; V domains derived as in m2) VH: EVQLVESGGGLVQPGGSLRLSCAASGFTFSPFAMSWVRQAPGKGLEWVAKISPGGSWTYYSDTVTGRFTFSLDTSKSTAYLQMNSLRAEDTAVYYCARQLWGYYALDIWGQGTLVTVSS VL: DIQLTQSPSSLSASVGDRVTITCSASLSVSYMYWYQQKPGKAPKLLIYDMSNLASGVPSRFSGSGSGTDFTLTISSLQPEDFATYYCMQWSGYPYTFGQGTKVEIK", "kon / M⁻¹ s⁻¹": 437000}
{"Binder": "anti-IL-6 antibody, heavy chain WT, light chain S26H (antibody, IgG1, V domains shown, Full IgG1 tested; V domains derived as in m2) VH: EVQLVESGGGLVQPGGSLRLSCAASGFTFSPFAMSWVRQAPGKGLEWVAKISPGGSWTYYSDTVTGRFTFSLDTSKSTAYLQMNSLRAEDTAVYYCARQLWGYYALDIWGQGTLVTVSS VL: DIQLTQSPSSLSASVGDRVTITCSAHISVSYMYWYQQKPGKAPKLLIYDMSNLASGVPSRFSGSGSGTDFTLTISSLQPEDFATYYCMQWSGYPYTFGQGTKVEIK", "kon / M⁻¹ s⁻¹": 415000}
